// IC50 lookup, one value per entry
- System: Vesicular stomatitis virus
- assay text: microbe, parasite or virus in culture
- Format: functional, organism-based
- test settings: Vesicular stomatitis virus; read-out: IC50
metric: IC50

compound="CC(Nc1nc(N2CCNCC2)nc2ccccc12)c1c(F)cccc1F (centres undefined)" reading="> 57.5 µM"
compound="CC(Nc1nc(N2CCNCC2)nc2ccc(-c3ccccc3)cc12)c1ccccc1 (centres undefined)" reading="> 57.5 µM"
compound="CC(Nc1nc(N2CCNCC2)nc2cc(-c3ccccc3)ccc12)c1ccccc1 (centres undefined)" reading="35.5 µM"
compound="CC(Nc1nc(N2CCOCC2)nc2ccccc12)c1ccccc1 (centres undefined)" reading="> 57.5 µM"
compound="CC(Nc1nc(N2CCNCC2)nc2ccc(F)cc12)c1ccccc1 (centres undefined)" reading="> 57.5 µM"
compound="CC(Nc1nc(N2CCC(=O)CC2)nc2ccccc12)c1ccccc1 (centres undefined)" reading="> 57.5 µM"
compound="CC(Nc1nc(N2CCNCC2)nc2cc(Br)ccc12)c1ccccc1 (centres undefined)" reading="7.94 µM"
compound="CC(Nc1nc(N2CCNCC2)nc2ccccc12)c1ccccc1N (centres undefined)" reading="39.8 µM"
compound=C[C@H](Nc1nc(N2CCNCC2)nc2ccccc12)c1ccccc1 reading="> 57.5 µM"
